# UniProtKB P25099: Ki values follow
Give bare numbers, in nM.

Molecular String: Nc1nc(SC2CCCCC2)nc2c1ncn2[C@@H]1O[C@H](CO)[C@@H](O)[C@H]1O
Ki / nM: 139

Respectfully, I request Ki for each entry included below.
1. CCCCCCSc1nc(N)c2ncn([C@@H]3O[C@H](CO)[C@@H](O)[C@H]3O)c2n1
2. CCCSc1nc(N)c2ncn([C@@H]3O[C@H](CO)[C@@H](O)[C@H]3O)c2n1

1. 256
2. 1270

* * *

Molecular target: Adenosine receptor A3 (Homo sapiens)
Sequence (P0DMS8 whole entry): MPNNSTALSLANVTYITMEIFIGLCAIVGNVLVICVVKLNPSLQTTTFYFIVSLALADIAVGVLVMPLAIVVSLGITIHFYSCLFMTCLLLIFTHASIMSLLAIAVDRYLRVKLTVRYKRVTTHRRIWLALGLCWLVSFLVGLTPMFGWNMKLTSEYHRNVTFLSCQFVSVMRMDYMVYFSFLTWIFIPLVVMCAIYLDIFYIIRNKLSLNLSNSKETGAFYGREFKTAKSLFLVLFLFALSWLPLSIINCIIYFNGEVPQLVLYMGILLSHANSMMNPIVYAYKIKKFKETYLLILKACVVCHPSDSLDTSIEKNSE
Test: Displacement of [3H]PSB-11 from human recombinant adenosine A3 receptor expressed in CHO cells after 60 mins
Lab note: anything with Ki below 3 µM is marked met; values at 3 µM or higher are marked not met.

Compound: Nc1nc(SC2CCCC2)nc2c1ncn2[C@@H]1O[C@H](CO)[C@@H](O)[C@H]1O
Class Name: not met
//
Compound: C#CCSc1nc(N)c2ncn([C@@H]3O[C@H](CO)[C@@H](O)[C@H]3O)c2n1
Class Name: not met

Could you now consider this next compound?
In the record for C=CCSc1nc(N)c2ncn([C@@H]3O[C@H](CO)[C@@H](O)[C@H]3O)c2n1 , is Ki less than 3 µM?
not met

* * *

Notes on Ki obtained with Adenosine receptor A2a (Rattus norvegicus).
Sequence (P30543 whole entry): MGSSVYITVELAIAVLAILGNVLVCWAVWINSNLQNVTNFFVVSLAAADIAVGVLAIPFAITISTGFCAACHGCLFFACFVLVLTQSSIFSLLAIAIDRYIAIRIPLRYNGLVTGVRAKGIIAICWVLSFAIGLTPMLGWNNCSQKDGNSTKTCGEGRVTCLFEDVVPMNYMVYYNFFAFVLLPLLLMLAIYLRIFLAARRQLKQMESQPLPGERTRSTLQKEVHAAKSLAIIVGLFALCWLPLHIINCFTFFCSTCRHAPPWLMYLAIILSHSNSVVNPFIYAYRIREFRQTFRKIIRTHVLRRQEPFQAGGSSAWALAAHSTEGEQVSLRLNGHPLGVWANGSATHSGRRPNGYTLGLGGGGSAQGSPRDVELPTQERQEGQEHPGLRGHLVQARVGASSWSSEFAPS
Give bare numbers, in nM.

# count of solved cases: 3
Molecular String: Nc1nc(SCCC2OCCO2)nc2c1ncn2[C@@H]1O[C@H](CO)[C@@H](O)[C@H]1O
Scale Unit: nM
Ki: 1160

Molecular String: Nc1nc(SCc2ccccc2)nc2c1ncn2[C@@H]1O[C@H](CO)[C@@H](O)[C@H]1O
Scale Unit: nM
Ki: 606

Molecular String: Nc1nc(SC2CCCCC2)nc2c1ncn2[C@@H]1O[C@H](CO)[C@@H](O)[C@H]1O
Scale Unit: nM
Ki: 2480

# batch size: 2; output Ki per entry
1. Nc1nc(SCCc2ccccc2)nc2c1ncn2[C@@H]1O[C@H](CO)[C@@H](O)[C@H]1O
2. C#CCSc1nc(N)c2ncn([C@@H]3O[C@H](CO)[C@@H](O)[C@H]3O)c2n1

18.5
2900

* * *

Biological target: Adenosine receptor A1 (Rattus norvegicus, UniProt P25099)
Sequence (P25099 whole entry): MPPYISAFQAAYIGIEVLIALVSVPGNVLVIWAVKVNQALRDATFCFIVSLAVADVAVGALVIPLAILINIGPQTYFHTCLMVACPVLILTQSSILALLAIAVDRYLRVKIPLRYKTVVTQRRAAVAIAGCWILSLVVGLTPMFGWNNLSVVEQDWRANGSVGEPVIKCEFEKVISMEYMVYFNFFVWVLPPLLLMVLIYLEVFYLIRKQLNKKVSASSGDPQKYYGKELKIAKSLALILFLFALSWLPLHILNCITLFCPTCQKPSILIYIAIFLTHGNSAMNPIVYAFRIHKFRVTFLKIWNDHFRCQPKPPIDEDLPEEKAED
Response field label takes yes when Ki is strictly below 500 nM and no in all other cases.

These solved cases illustrate the format of a correct answer.
Molecular String: C#CCSc1nc(N)c2ncn([C@@H]3O[C@H](CO)[C@@H](O)[C@H]3O)c2n1
Class Name: no
//
Molecular String: Nc1nc(SCc2ccccc2)nc2c1ncn2[C@@H]1O[C@H](CO)[C@@H](O)[C@H]1O
Class Name: no
//
Molecular String: C=CCSc1nc(N)c2ncn([C@@H]3O[C@H](CO)[C@@H](O)[C@H]3O)c2n1
Class Name: no

Please state whether Ki is below 500 nM for Nc1nc(SCCC2CCCCC2)nc2c1ncn2[C@@H]1O[C@H](CO)[C@@H](O)[C@H]1O
yes

Determine if Nc1nc(SC2CCCC2)nc2c1ncn2[C@@H]1O[C@H](CO)[C@@H](O)[C@H]1O shows Ki strictly lower than 500 nM.
no

* * *

Target: Adenosine receptor A3 (Homo sapiens)
Test: Displacement of [3H]PSB-11 from human recombinant adenosine A3 receptor expressed in CHO cells after 60 mins
Classify: TRUE when Ki is strictly less than 2000 nM; FALSE when Ki is not.

Compound: Nc1nc(SC2CCCCC2)nc2c1ncn2[C@@H]1O[C@H](CO)[C@@H](O)[C@H]1O
Tgt: Adenosine receptor A3 (Homo sapiens)
Class Name: FALSE
//
Compound: Nc1nc(SCC2CCCCC2)nc2c1ncn2[C@@H]1O[C@H](CO)[C@@H](O)[C@H]1O
Tgt: Adenosine receptor A3 (Homo sapiens)
Class Name: TRUE
//
Compound: CCCCCCSc1nc(N)c2ncn([C@@H]3O[C@H](CO)[C@@H](O)[C@H]3O)c2n1
Tgt: Adenosine receptor A3 (Homo sapiens)
Class Name: FALSE

Lab log: compare recorded Ki with 2000 nM; is it strictly lower for Nc1nc(SCCC2COCCO2)nc2c1ncn2[C@@H]1O[C@H](CO)[C@@H](O)[C@H]1O (stereo partly drawn) ?
TRUE

Record Nc1nc(SCCc2ccccc2)nc2c1ncn2[C@@H]1O[C@H](CO)[C@@H](O)[C@H]1O : is its Ki strictly below 2000 nM?
TRUE

Strictly below 2000 nM: is that where Ki of Nc1nc(SCCC2CCCCC2)nc2c1ncn2[C@@H]1O[C@H](CO)[C@@H](O)[C@H]1O sits?
FALSE

Lab note: confirm whether the reported Ki for this compound is below 2000 nM, equality not counting. compound: Nc1nc(SCCC2OCCO2)nc2c1ncn2[C@@H]1O[C@H](CO)[C@@H](O)[C@H]1O
FALSE

Field: below-cutoff. Rule: recorded Ki strictly less than 2000 nM. Subject: Nc1nc(SCc2ccccc2)nc2c1ncn2[C@@H]1O[C@H](CO)[C@@H](O)[C@H]1O
TRUE
